Tested on: HCC1599
condition-notes: 72 h
# reported EC50, CellTiter-Blue viability; entries follow

molecule-smiles	unit-name	EC50, CellTiter-Blue viability
Cn1cnc2c(F)c(Nc3ccc(Br)cc3F)c(C(=O)NOCCO)cc21	µM	0.106
COC(=O)C[C@](O)(CCCC(C)(C)O)C(=O)O[C@@H]1C(OC)=C[C@]23CCCN2CCc2cc4c(cc2[C@H]13)OCO4	µM	0.018
COc1ncc(-c2ccc3nccc(-c4ccnnc4)c3c2)cc1NS(=O)(=O)c1ccc(F)cc1F	µM	0.00737
CCS(=O)(=O)c1cccc(-c2cc(C(=O)NC3CCN(C)CC3)c(C)c3[nH]c4ncc(C)cc4c23)c1	µM	0.11
C[C@@]1(C(=O)Nc2ccc(F)nc2)CCCN1c1nc(Nc2cc(C3CC3)n[nH]2)c2cccn2n1	µM	0.0708

----------
Tested on: CAL-85-1
method-description: normalised response (% of control), CellTiter-Glo; higher = more viable cells (100 = DMSO, 0 = benzethonium chloride kill control)
condition-notes: incubation time: 72 h
# normalised response per record follows

compound	system-under-test	normalised response, %
CS(=O)(=O)OCCCCOS(C)(=O)=O [Busulfan] (100000 nM)	CAL-85-1	104
CCS(=O)(=O)c1cccc(-c2cc(C(=O)NC3CCN(C)CC3)c(C)c3[nH]c4ncc(C)cc4c23)c1 [TAK-901] (1000 nM)	CAL-85-1	73.4
COc1cc(Nc2ncc(F)c(Nc3ccc4c(n3)NC(=O)C(C)(C)O4)n2)cc(OC)c1OC [Tamatinib] (10000 nM)	CAL-85-1	97.5
O=C(c1ccc(OCCN2CCCCC2)cc1)c1c(-c2ccc(O)cc2)sc2cc(O)ccc12 [Raloxifene] (10000 nM)	CAL-85-1	76.7
Cc1cc(C(C)Nc2ccccc2)c2nc(N3CCOCC3)cc(=O)n2c1 (stereo unspecified) [TGX-221] (10000 nM)	CAL-85-1	98.2
COc1cccc2c1C(=O)c1c(O)c3c(c(O)c1C2=O)C[C@@](O)(C(C)=O)C[C@@H]3O[C@H]1C[C@H](N)[C@H](O)[C@H](C)O1 [Daunorubicin] (1000 nM)	CAL-85-1	7.68

----------
Tested on: BT-549
condition-notes: 72 h
Labelling: EC50, CellTiter-Glo reported below 0.7 µM becomes MET; at or above becomes NOT MET.

compound	assigned-category
CC(=O)O[C@H]1C(=O)[C@@]2(C)[C@H]([C@H](OC(=O)c3ccccc3)[C@]3(O)C[C@H](OC(=O)[C@H](O)[C@@H](NC(=O)c4ccccc4)c4ccccc4)C(C)=C1C3(C)C)[C@]1(OC(C)=O)CO[C@@H]1C[C@@H]2O [Paclitaxel]	MET
COc1cc(Nc2ncc(F)c(Nc3ccc4c(n3)NC(=O)C(C)(C)O4)n2)cc(OC)c1OC [Tamatinib]	MET
COC(=O)C[C@](O)(CCCC(C)(C)O)C(=O)O[C@@H]1C(OC)=C[C@]23CCCN2CCc2cc4c(cc2[C@H]13)OCO4 [Omacetaxine]	MET
CN(c1ccccc1CNc1nc(Nc2ccc3c(c2)CC(=O)N3)ncc1C(F)(F)F)S(C)(=O)=O	NOT MET
C[C@@H]1C=C2C(=O)O[C@@H]3CC[C@H](C1)[C@]23O [Galiellalactone]	NOT MET
COC1=CC(c2cc3ccccc3[nH]2)=N/C1=C\c1[nH]c(C)cc1C [Obatoclax]	NOT MET
